Measured EC90 by item
test system: HSV-1; experiment: Antiviral activity, HSV-1 in Vero cells, plaque method; assay type: cell-based; settings: Human alphaherpesvirus 1, 20 hours, 90% inhibition of plaque formation
Recorded Endpoint: EC90

- Cc1c(NC(=O)c2sc3ccccc3c2Cl)ccc2nc(NC(C)(C)C(=O)N(C)CCc3ccccn3)oc(=O)c12 [Compound No.178]: 5.8 µM
- Cc1c(NC(=O)OC(C)(C)C)ccc2nc(N3Cc4ccccc4C[C@H]3C(=O)NCc3cccnc3)oc(=O)c12 [Compound No.95]: 12.3 µM
- Cc1c(NC(=O)OC(C)(C)C)ccc2nc(N3CCCC[C@H]3C(=O)N(C)CCc3ccccn3)oc(=O)c12 [Compound No.106]: > 12.5 µM
- COc1ccc(CC(Nc2nc3ccc(NC(=O)OC(C)(C)C)c(C)c3c(=O)o2)C(=O)NCc2ccccn2)cc1 (centres unmarked) [compound 230, reference compound]: 6.1 µM
- Cc1c(NC(=O)c2ccc3c(c2)OCO3)ccc2nc(NC(C)(C)C(=O)N(C)CCc3ccccn3)oc(=O)c12 [Compound No.193]: ≥ 12.5 µM
- Cc1c(NC(=O)OC(C)(C)C)ccc2nc(N3CCCC[C@H]3C(=O)NCc3cccnc3)oc(=O)c12 [Compound No.103]: > 12.5 µM
- Cc1cc(C(=O)Nc2ccc3nc(NC(C)(C)C(=O)N(C)CCc4ccccn4)oc(=O)c3c2C)c(C)o1 [Compound No.176]: > 12.5 µM
- Cc1c(NC(=O)CCCNC(=O)c2ccc(N(C)C)cc2)ccc2nc(NC(C)(C)C(=O)N(C)CCc3ccccn3)oc(=O)c12 [Compound No.224]: > 12.5 µM
- Cc1c(NC(=O)OC(C)(C)C)ccc2nc(N[C@@H](CC3CCCCC3)C(=O)N(C)CCc3ccccn3)oc(=O)c12 [Compound No.47]: < 3.2 µM
- Cc1c(NC(=O)OC(C)(C)C)ccc2nc(N[C@@H](CC3CCCCC3)C(=O)NCc3cccnc3)oc(=O)c12 [Compound No.27]: > 25 µM
- Cc1c(NC(=O)OC(C)(C)C)ccc2nc(N[C@@H](CC3CCCCC3)C(=O)NCc3ccncc3)oc(=O)c12 [Compound No.28]: < 6.3 µM
- Cc1c(NC(=O)OC(C)(C)C)ccc2nc(N[C@H](C(=O)NCCc3ccccn3)C(C)C)oc(=O)c12 [Compound No.26]: 13 µM
- Cc1c(NC(=O)CCCNC(=O)OC(C)(C)C)ccc2nc(N[C@@H](C)C(=O)N(C)CCc3ccccn3)oc(=O)c12 [Compound No.207]: > 12.5 µM
- Cc1c(NC(=O)OC(C)(C)C)ccc2nc(N[C@@H](Cc3ccccc3)C(=O)N(C)CCc3ccncc3)oc(=O)c12 [Compound No.49]: < 3.2 µM

----------
tested on: HSV1 Sensitive strain; assay: Antiviral activity 2, plaque formation in HEL cells; assay type: cell-based, HSV-1; settings: Human alphaherpesvirus 1, 72 h, 3 days
Recorded Endpoint: IC50 (µM)

- Cc1c(NC(=O)OC(C)(C)C)ccc2nc(NC3(C(=O)N(C)CCc4ccncc4)CCCCC3)oc(=O)c12: 5.8
- Cc1c(NC(=O)OC(C)(C)C)ccc2nc(N[C@@H](Cc3ccccc3)C(=O)N(C)CCc3ccccn3)oc(=O)c12: 6.1
- Cc1c(NC(=O)OC(C)(C)C)ccc2nc(N(C)[C@@H](Cc3ccccc3)C(=O)NCc3ccccn3)oc(=O)c12: 9.5
- Cc1c(NC(=O)OC(C)(C)C)ccc2nc(NC(C)(C)C(=O)N(C)CCc3ccccn3)oc(=O)c12: 10
